The reported measurements were obtained from ChEMBL document CHEMBL1130335.

Experiment: Measured activity expressed as ID50 (analogue)/ID50 (paclitaxel), where ID50 is the concentration of compound leading to 50% inhibition of the rate microtubule disassembly
Assay type: functional
Measured attribute: Activity
One number for each entry.

Compound	Activity
CC(=O)O[C@H]1C(=O)[C@]2(C)[C@@H](O)CC3OC[C@@]3(OC(C)=O)[C@H]2[C@H](OC(=O)c2ccccc2)[C@]2(O)C[C@H](OC(=O)[C@H](O)[C@H](NC(=O)c3ccccc3)c3ccc(C)cc3)C(C)=C1C2(C)C (stereo partly drawn)	0.8
CC(=O)O[C@H]1C(=O)[C@]2(C)[C@@H](O)CC3OC[C@@]3(OC(C)=O)[C@H]2[C@H](OC(=O)c2ccccc2)[C@]2(O)C[C@H](OC(=O)[C@H](O)[C@H](N)c3ccccc3)C(C)=C1C2(C)C (stereo partly drawn)	44

Read the next record carefully.
In: Query (compound): CO[C@H]1[C@H](OC(C)=O)C2=C(C)[C@@H](OC(=O)[C@H](O)[C@@H](NC(=O)c3ccccc3)c3ccccc3)C[C@@](O)([C@@H](OC(=O)c3ccccc3)[C@H]3[C@@]1(C)[C@@H](O)CC1OC[C@]13OC(C)=O)C2(C)C (stereo partly drawn) ; field requested: Activity
Out: 0.35
